Test system: 556581-035-R-J1-PDC complex spheroid growth
Experiment: Anticancer human tumor 556581-035-R-J1-PDC patient-derived ovarian carcinoma cell line growth inhibition [Asc]
Settings: curve of first compound; second compound 0.1 µM
Description: Multicellular complex tumor spheroid response to apoptosis pathway targeting inhibitors Alrizomadlin, Pelcitoclax, and Dasminapant in combination with a variety of drugs and investigational agents in selected tumor cell lines […] Compounds. […] If the clinical Cmax for an agent had not been determined, the highest concentration tested was 10 microM. […]
pIC50: −log10 of the molar value.
Measured pIC50 of individual entries
Measured quantity: pIC50

compound="C=C(F)C(=O)N1CCN(c2nc(OCC3CCCN3C)nc3c2CCN(c2cccc4cccc(Cl)c24)C3)CC1CC#N (stereo not drawn) + Cc1c(S(C)(=O)=O)c(-c2cc(F)cc(N3CCN(c4ccc(NS(=O)(=O)c5ccc(NC(CCN6CCC(C(=O)OCCCP(=O)(O)O)CC6)CSc6ccccc6)c(S(=O)(=O)C(F)(F)F)c5)cc4)CC3)c2)c(-c2ccc(Cl)cc2)n1C(C)C" result=5.68
compound="O=C(c1cc(Cc2n[nH]c(=O)c3ccccc23)ccc1F)N1CCN(C(=O)C2CC2)CC1 + CNC(C)C(=O)NC1CN(S(=O)(=O)c2cccc(S(=O)(=O)N3CCC4CCC(C(=O)NC(c5ccccc5)c5ccccc5)N4C(=O)C(NC(=O)C(C)NC)C3)c2)CCC2CCC(C(=O)NC(c3ccccc3)c3ccccc3)N2C1=O" result="< 5.00"
compound="O=C(c1cc(Cc2n[nH]c(=O)c3ccccc23)ccc1F)N1CCN(C(=O)C2CC2)CC1 + Cc1c(S(C)(=O)=O)c(-c2cc(F)cc(N3CCN(c4ccc(NS(=O)(=O)c5ccc(NC(CCN6CCC(C(=O)OCCCP(=O)(O)O)CC6)CSc6ccccc6)c(S(=O)(=O)C(F)(F)F)c5)cc4)CC3)c2)c(-c2ccc(Cl)cc2)n1C(C)C" result="< 5.00"

----------
Test system: 556581-035-R-J1-PDC complex spheroid growth
Assay: Anticancer human tumor 556581-035-R-J1-PDC cell line growth inhibition [Asc];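 further: spheroids exposed to agents for 7 days before viability read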
Settings: second compound 3.16 µM; first compound 10 µM; stronger effect = lower value
Measured quantity: viability, T/C (%)

compound="C#Cc1c(F)ccc2cc(O)cc(-c3ncc4c(N5CC6CCC(C5)N6)nc(OCC56CCCN5CC(F)C6)nc4c3F)c12 (centres undefined) + Cc1c(S(C)(=O)=O)c(-c2cc(F)cc(N3CCN(c4ccc(NS(=O)(=O)c5ccc(NC(CCN6CCC(C(=O)OCCCP(=O)(O)O)CC6)CSc6ccccc6)c(S(=O)(=O)C(F)(F)F)c5)cc4)CC3)c2)c(-c2ccc(Cl)cc2)n1C(C)C" measured_quantity="viability, T/C" numeric_result=49.1
compound="C=CC(=O)N1CCN(c2nc(=O)n(-c3c(C)ccnc3C(C)C)c3nc(-c4c(O)cccc4F)c(F)cc23)C(C)C1 (centres undefined) + Cc1c(S(C)(=O)=O)c(-c2cc(F)cc(N3CCN(c4ccc(NS(=O)(=O)c5ccc(NC(CCN6CCC(C(=O)OCCCP(=O)(O)O)CC6)CSc6ccccc6)c(S(=O)(=O)C(F)(F)F)c5)cc4)CC3)c2)c(-c2ccc(Cl)cc2)n1C(C)C" measured_quantity="viability, T/C" numeric_result=56.8
compound="O=C(c1cc(Cc2n[nH]c(=O)c3ccccc23)ccc1F)N1CCN(C(=O)C2CC2)CC1 + Cc1c(S(C)(=O)=O)c(-c2cc(F)cc(N3CCN(c4ccc(NS(=O)(=O)c5ccc(NC(CCN6CCC(C(=O)OCCCP(=O)(O)O)CC6)CSc6ccccc6)c(S(=O)(=O)C(F)(F)F)c5)cc4)CC3)c2)c(-c2ccc(Cl)cc2)n1C(C)C" measured_quantity="viability, T/C" numeric_result=57.9
compound="C=C(F)C(=O)N1CCN(c2nc(OCC3CCCN3C)nc3c2CCN(c2cccc4cccc(Cl)c24)C3)CC1CC#N (centres undefined) + Cc1c(S(C)(=O)=O)c(-c2cc(F)cc(N3CCN(c4ccc(NS(=O)(=O)c5ccc(NC(CCN6CCC(C(=O)OCCCP(=O)(O)O)CC6)CSc6ccccc6)c(S(=O)(=O)C(F)(F)F)c5)cc4)CC3)c2)c(-c2ccc(Cl)cc2)n1C(C)C" measured_quantity="viability, T/C" numeric_result=27
